test system: B16-F10 cells; experiment: Cell cycle assay in B16-F10 cells; format: cell-based, mouse; details: 150 nM, 48 hours, relative to untreated control
In the oligonucleotide strings, read from the 5' end, every base follows the letter of its sugar. An asterisk marks phosphorothioate; unmarked linkages are phosphodiester. Other units and linkages are bracketed, terminal groups are in braces. A string of capitals states the bases alone. e = 2'-O-(2-methoxyethyl) (MOE); [5mC] = 5-methylcytosine; d = 2'-deoxy (DNA)
OUTCOME_MEASURE: % cells in cell cycle phase aneuploid
Param answer (str): number followed by unit.

These recorded examples may help you get a feel for the data.
SUBSTANCE	TEST_TARGET	RESULT
327902 (antisense eG*eG*e[5mC]*eT*eG*eT*e[5mC]*eA*eA*eT*eT*e[5mC]*eA*eT*eA*eG*eG*eT*e[5mC]*eA*eG) [compound 327902]	B16-F10 cells	101%
327905 (antisense e[5mC]*eA*eG*eA*e[5mC]*eT*e[5mC]*e[5mC]*eG*eG*eT*eG*eG*eA*eA*eT*eG*eA*eA*eG*eG*eA) [compound 327905]	B16-F10 cells	94%
328403 (antisense eA*eG*eG*e[5mC]*e[5mC]*dT*dA*dT*dT*d[5mC]*d[5mC]*dT*dG*dT*dA*eG*e[5mC]*eA*eA*eA) [compound 328403]	B16-F10 cells	92%

Could you now look at the following substance, please?
Field request: % cells in cell cycle phase aneuploid | item: 285717 (antisense TCGGTTCTTTCCAAGGCTGA; chemistry not given here) [compound 285717]
178%
